The values you see were collected from PubChem BioAssay AID504332.

Each record here notes measured activity, negative = inhibition.
Molecular target: Histone-lysine N-methyltransferase EHMT2 (Homo sapiens)
Assay: qHTS Assay for Inhibitors of Histone Lysine Methyltransferase G9a; note: % is set by controls: 0 for no effect and ±100 for the full control effect; nearly all actives have a fitted effect of over 75% in size
Settings: G9a H3K9 monomethylation, AlphaScreen, 2 h; series mostly up to 59 µM
In all, about 350,000 compounds went through this assay and about 31,000 (8.9%) were called active. Another 15% or so got no clear call; they are omitted. This is one part of a sample in which actives are shown more often than they occur.

Observe how each entry below is paired with its result.
Using Histone-lysine N-methyltransferase EHMT2 (Homo sapiens) as the test system, report measured activity, negative = inhibition of COc1cccc(NC(=O)c2ccccc2N(Cc2ccccc2)S(C)(=O)=O)c1 . 19.2% [at 0.501 µM] (inactive)

Using Histone-lysine N-methyltransferase EHMT2 (Homo sapiens) as the test system, report measured activity, negative = inhibition of CCOc1ccc(S(=O)(=O)NCCC(=O)NCC2CCCO2)cc1 (stereo not given) . 28.8% [at 12.7 µM] (inactive)

Using Histone-lysine N-methyltransferase EHMT2 (Homo sapiens) as the test system, report measured activity, negative = inhibition of O=C(Nc1ccc(S(=O)(=O)N2CCCCCC2)cc1)c1c(F)cccc1F . -5.59% [at 12.7 µM] (inactive)

Using Histone-lysine N-methyltransferase EHMT2 (Homo sapiens) as the test system, report measured activity, negative = inhibition of O=C(CSc1nnc(N2CCOCC2)n1-c1cccc(F)c1)N1CCN(c2ccccn2)CC1 . -9.34% [at 12.7 µM] (inactive)

Attention now turns to another entry.
Using Histone-lysine N-methyltransferase EHMT2 (Homo sapiens) as the test system, report measured activity, negative = inhibition of CCc1cccc(NC(=O)CCCN2C(=O)C(c3ccccc3)Oc3cccnc32)c1 (stereo not given) . 26% [at 0.0925 µM] (inactive)

* * *

Biological target: Histone-lysine N-methyltransferase EHMT2 (Homo sapiens)
Assay: qHTS Assay for Inhibitors of Histone Lysine Methyltransferase G9a; note: % is set by controls: 0 for no effect and ±100 for the full control effect; nearly all actives have a fitted effect of over 75% in size
Settings: G9a H3K9 monomethylation, AlphaScreen, 2 h; series mostly up to 59 µM
The campaign covered roughly 350,000 compounds. About 31,000 (8.9%) were called active. Another 15% or so got no clear call; they are omitted. Many of the other results were omitted from the sample, so actives are more common in it than they were.
propertyName: activity, negative = inhibition

Observe how each entry below is paired with its result.
Supply recorded activity, negative = inhibition for CC(NCC(=O)Nc1ccccc1C(=O)NC1CC1)c1ccccc1Cl (configuration not stated) here. 3.45% [at 12.7 µM] (inactive)

Supply recorded activity, negative = inhibition for Cc1c(O)c(C)c2c(c1O)C(=O)C[C@@H](c1ccccc1)O2 here. 17.8% [at 2.33 µM] (inactive)

Supply recorded activity, negative = inhibition for CCOc1ccc(N2C(=O)CSC2=NC#N)cc1 here. -16.5% [at 12.7 µM] (inactive)

Supply recorded activity, negative = inhibition for Cc1ccc(C)c(-n2ccnc2SCC(N)=O)c1 here. 23.6% [at 12.7 µM] (inactive)

Supply recorded activity, negative = inhibition for CC1CC1C(=O)OCC(=O)Nc1cccc(F)c1 (configuration not stated) here. 17.7% [at 2.33 µM] (inactive)

Supply recorded activity, negative = inhibition for CN(Cc1cccs1)C(=O)CN1C(=O)c2ccccc2S1(=O)=O here. -6.03% [at 2.33 µM] (inactive)

Supply recorded activity, negative = inhibition for C=CCNC(=S)N/N=C/c1ccc(C)s1 here. 72.7% [at 12.7 µM] (inactive)

Supply recorded activity, negative = inhibition for CC1CCC(CN2CCN=C2N(C)C)CC1 (configuration not stated) here. 11.1% [at 12.7 µM] (inactive)

Supply recorded activity, negative = inhibition for Cc1ccc(Cl)c(OCC(=O)N(C)CC(=O)Nc2ccc(N3CCOCC3)cc2)c1 here. 10.6% [at 0.501 µM] (inactive)

Supply recorded activity, negative = inhibition for O=C(c1cc(-c2ccc(Cl)s2)nc2ccccc12)N1CCOCC1 here. 17% [at 12.7 µM] (inactive)

***
Supply recorded activity, negative = inhibition for O=C1CSC(c2cccc(F)c2)N1c1ccccc1F (configuration not stated) here. -5.4% [at 12.7 µM] (inactive)

Supply recorded activity, negative = inhibition for Cc1cccc(C(=O)Nc2ccccc2-c2nnn(CC(=O)Nc3ccc4c(c3)OCCO4)n2)c1 here. 48.1% [at 12.7 µM] (inactive)
